Attribution: the supplement of paper PMC9170038

Test system: MS2 coat protein
assay.info: apparent KD of MS2 coat protein; designed switch direction (-1 OFF switch, 1 ON switch): 1; higher = weaker reporter binding
conditions: input ligand: microRNA oligo, concentration not stated
measurement.name: apparent KD of MS2 coat protein
The number alone won't do; follow it with the unit.

The value of apparent KD of MS2 coat protein measured for the sequence ACAUGAGAGAUAGGAUAUGCUGUACCUACAUGUGACAUGAGGAUCACCCAUGUGGUAAGUAUGAGGCAGAAGGAUCAGAUAUGU [Equivalence 49 - Jieux - Same State NG 2] (Eterna round: R96, puzzle: Same State NG 2) turned out to be 17.3 nM

Lab book: apparent KD of MS2 coat protein of ACAUGAGGAUCACCCAUGUAACACCUGAAAAUAAAACGAACACAGGAUAUCCCGGCAAGACACCGGGAGAAGGGUGAUCGAAGA [Eresorbe] (Eterna round: R96, puzzle: Same State NG 3) noted as 13.6 nM

Field apparent KD of MS2 coat protein (entry UUUGCAUGACGAGGAUAUCAUUUAUUUCUUGAUUGAGAAGGCGUUCUUUUUACUACCUAACAUGAGGAUCACCCAUGUGACAGU [JR_SSNG1_Sub048] (Eterna round: R96, puzzle: Same State NG 1) ) reads 11.3 nM

Data point: CGACACACGGCAGGAUAUGCUUAGCAAAGCUAAGCAGAAGGGCCUCAUGUCGUGGAAACCUGACAUGAGGAUCACCCAUGUCGG [Omei SS(NG)1 Cv3] (Eterna round: R96, puzzle: Same State NG 1) ; apparent KD of MS2 coat protein = 11.6 nM

---

Test system: MS2 coat protein
assay.info: apparent KD of MS2 coat protein; designed switch direction (-1 OFF switch, 1 ON switch): -1; higher = weaker reporter binding
conditions: input ligand: FMN 200 uM
We use 20 nM as the dividing line for apparent KD of MS2 coat protein: on or above the line is 1, below is -1.

Kindly determine if apparent KD of MS2 coat protein recorded for AAUGUGUAAGGAUAUCCGAAAAGCGAGCGAAAGCGAGCGAAGGAGAAGGUACAUGAGGAUCACCCAUGUAAGGG [AK-MS2ROC-r4-exclusion4-11.6] (Eterna round: R97, puzzle: Exclusion 4) is above or exactly 20 nM.
1

Is the recorded value of apparent KD of MS2 coat protein equal to or greater than 20 nM for this sequence? AAAAGUCUUUAGGAUAUGUGCGAUUAAUAUCGUGCAGAAGGAAGGACAUGAGGAUCACCCAUGUUGAAGACAAC [Omei Ex6 A19] (Eterna round: R97, puzzle: Exclusion 6)
1

Threshold query (apparent KD of MS2 coat protein >= 20 nM) on CAGCUGAAAGUGAGGAUAUCUAGAGCUUCGGCUCUAGAGAAGGCACAUGAGGAUCACCCAUGUCUCAACAGCUG [BmEx4/1-A1] (Eterna round: R97, puzzle: Brourd's mod of Exclusion 4)
1

Hi team, for CGUCUGUAAGGAUAUGGUAGCAUCAACAUGAGGAUCACCCAUGUUACAUGGGACUAGUGAUUAGAAGGUACGAACG [EX5 #56] (Eterna round: R97, puzzle: Exclusion 5) , is the recorded apparent KD of MS2 coat protein at or above 20 nM?
1

Assess whether reported apparent KD of MS2 coat protein for GGCGGACAUGAGGAUCACCCAUGUCAGGAUAUUAGGCGAUCGUCGAUAGACGAUAGCCUGAGAAGGGACGCGCC [Mat - Exclusion 1 - Eli Mod - D13] (Eterna round: R97, puzzle: Exclusion 1) sits at 20 nM or higher.
-1

Is apparent KD of MS2 coat protein at least 20 nM? Consider ACAAGCUUUUUCGUGGGUGACAUGAGGAUCACCCAUGUUUGCCACGUCUUGUGGGCCCGGGCCCGCGGCCCGGGCCC [-44.6, -64.9, A 13%] (Eterna round: R97, puzzle: Sensor, turn-off variant 1)
1

Say whether GUAACAUGCUGGUGAUCAUACAUGAGGAUCACCCAUGUAACAAGCUUUUUGCUCGUCUUAUAAGAUCACCAGCAUGU [Stov1/9-A3] (Eterna round: R97, puzzle: Sensor, turn-off variant 1) shows apparent KD of MS2 coat protein of 20 nM or more.
-1

Could you tell me if the measured apparent KD of MS2 coat protein of AAUGAUUGACGAGGAUAUUGUGGUAGAUCACGACGAGAAGGCGUUUGUCACAUGAGGAUCACCCAUGUGAGCCUUGUGGAUAGA [Ex NG1 #75] (Eterna round: R96, puzzle: Exclusion NG 1) reaches 20 nM or more?
1

Decide: apparent KD of MS2 coat protein of GCACGGAGUGUAGGAUAUCUGUGCGAUUAGCUCAGAGAAGGGCACAUGAGGAUCACCCAUGUGUAUAAACACAAUAAUCCGUGC [Eli exng1 - 069] (Eterna round: R96, puzzle: Exclusion NG 1) >= 20 nM?
-1

Determine whether measured apparent KD of MS2 coat protein meets or exceeds 20 nM for ACAUGAGGAUCACCCAUGUGCACGUAAUGGCUCAUGUAGAGUGAGGAUAUGUGUGACGAACGAGCACAGAAGGCACAAGACUGG [Deportation 13 - Jieux - Exclusion NG 3] (Eterna round: R96, puzzle: Exclusion NG 3)
1

Is the recorded value of apparent KD of MS2 coat protein equal to or greater than 20 nM for this sequence? AGAGUGCUGCGAGGAUAUACAUGAGGAUCACCCAUGUAUUAGUGUGAGGCUUUGCCUCACACAAUGUAGAAGGCGCAGUACUCA [Mat - Exclusion NG 2 - Mod of JL - D8] (Eterna round: R96, puzzle: Exclusion NG 2)
-1
